This collection of values is drawn from paper PMC2756588.

For each entry below, report its SPOT intensity value.
system tested: T1, Lsb1, P53281
T1 sequence (P53281 45-122, looked up): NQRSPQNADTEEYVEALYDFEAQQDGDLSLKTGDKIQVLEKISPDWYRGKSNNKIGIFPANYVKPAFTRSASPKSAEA
measurement notes: SPOT array
assay conditions: median of control spots 388
Answer with a number only.

Query: Could you share which SPOT intensity value was measured for WTQRRGPLVVYAEDN ?
Result: 0

Query: Also ALRRRLPVTRSKINW ?
Result: 46

Query: How about this binder: NFLRLLIGLPSQNEL
Result: 2

Query: Ok, now NPNRRAPRRPLSTQH
Result: 52

Query: Try QTMRQAPKRPDADVA next.
Result: 211

Query: Okay, and VPKEPAPAPPPEPDM ?
Result: 0

Query: Consider next the binder FTLPPPPPPPGLDEL in the same way.
Result: 0

Query: And VAPPPLPNRQLPNLD ?
Result: 1380

Query: Repeat with AATTSTPPLPRRRAT
Result: 243

Query: Queued: DKSRPPRPPPKPLHL
Result: 4

Query: What would you report for TTNRGPPPLPPRANV ?
Result: 1110

Query: Likewise for TPRLSLPRLPNKHHW ?
Result: 0

Query: Can you handle IHTRRPSSTSQYLIR next?
Result: 0

Query: Lookup GKFIPSRPAPKPPSS
Result: 360

Query: Please answer likewise for NAGIRPKFILALNDE
Result: 0

Query: Same read-out for RRGPAPPPPPRASRP ?
Result: 0

Query: Follow-up item: SHRLWLYAAPKRPKT
Result: 0

Query: What about RLPAPPPPPRRGPAP ?
Result: 0

Query: Check DFTLPPPPPPPGLDE too.
Result: 0

Query: Check QHQQRQPKRPKRYSL too.
Result: 5

Query: And for VKPRQLFPIPLNKVD ?
Result: 880

Query: Proceed to STKKPRPPVKSKPKH
Result: 0

Query: Query PVLPPPRSPNRPTLS next
Result: 39

Query: And the next one, RTIRKLPLMSLSEYF ?
Result: 15

Query: Same for QFDLKMPSKPIHNLK
Result: 1

Query: Ok, now LLGRKRPVMERVVDI
Result: 4

Query: Now try TYNRTAFQIPGDQSI .
Result: 705

Query: Now the binder ITHRLRISIPGITGR
Result: 231

Query: Try this binder next: RRLRDKYKLPIVDAD
Result: 48

Query: Would you mind doing EREKALPPIPFTTTL as well?
Result: 16
